Where do these numbers come from? They come from paper PMC9635925.

- testSystem: MRGPRX2-MUT (MRGPRX2 N62S mutation) (Homo sapiens, UniProt Q96LB1, N62S)
- Construct: expressed in transfected cells
- Sequence (Q96LB1 whole entry N62S): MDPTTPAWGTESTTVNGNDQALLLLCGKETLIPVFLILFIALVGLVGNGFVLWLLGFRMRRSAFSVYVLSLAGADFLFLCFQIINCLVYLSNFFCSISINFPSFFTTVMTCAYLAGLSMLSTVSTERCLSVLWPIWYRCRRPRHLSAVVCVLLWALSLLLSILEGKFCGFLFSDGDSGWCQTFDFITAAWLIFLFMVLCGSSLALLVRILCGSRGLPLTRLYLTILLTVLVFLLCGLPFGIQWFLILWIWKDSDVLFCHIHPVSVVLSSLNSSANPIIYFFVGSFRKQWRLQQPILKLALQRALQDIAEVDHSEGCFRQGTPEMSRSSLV
- experiment: Primary HTS, Ca2+ mobilization (fluorescence ratio, B-score) in HEK293-Gα15 cells stably expressing the MRGPRX2 N62S mutation
- Format: cell-based
- runConditions: 10 μM compound, MRGPRX2-MUT (N62S) cells, Supplementary Table 2
Structures can show the parent of a compound that is named as a salt.
outcomeMeasure: B-scores (MUT)
Enter the number alone.

Request: Hi! What's the reported B-scores (MUT) for COc1ccc(CCN(C)CCCC(C#N)(c2ccc(OC)c(OC)c2)C(C)C)cc1OC (centres unmarked) [Verapamil] on MRGPRX2-MUT (MRGPRX2 N62S mutation) (Homo sapiens, UniProt Q96LB1, N62S)?
Response: -1.44

Request: Lookup CN(C)CCC(c1ccc(Cl)cc1)c1ccccn1 (centres unmarked)
Response: 0.88

Request: Lookup CN(C)CCOC(c1ccc(Cl)cc1)c1ccccn1 (centres unmarked) [Carbinoxamine Maleate]
Response: 1.49

Request: Lookup CN(C)CCOC(c1ccccc1)c1ccccc1 [Diphenhydramine Hydrochloride]
Response: 0.66

Request: Lookup CN(C)CCOC(c1ccccc1)c1ccc(Br)cc1.Cl (centres unmarked) [Bromazine hydrochloride]
Response: -0.05

Request: Lookup CN1CCN(c2cc3c(cc2F)c(=O)c(C(=O)O)cn3-c2ccc(F)cc2)CC1 [Difloxacin Hydrochloride]
Response: -1.54

Request: Lookup CN1[C@@H]2CC[C@H]1C[C@@H](OC(=O)C(CO)c1ccccc1)C2 (some centres unmarked) [Atropine]
Response: -0.95

Request: Lookup COc1ccc2c(c1)[C@]13CCCC[C@@H]1[C@H](C2)N(C)CC3 [Dextromethorphan hydrobromide]
Response: 54.88

---

- testSystem: MRGPRX2-MUT (MRGPRX2 N62S mutation) (Homo sapiens, UniProt Q96LB1, N62S)
- Construct: expressed in transfected cells
- experiment: Primary HTS, Ca2+ mobilization (fluorescence ratio, B-score) in HEK293-Gα15 cells stably expressing the MRGPRX2 N62S mutation
- Format: cell-based
- runConditions: 10 μM compound, MRGPRX2-MUT (N62S) cells, Supplementary Table 1
Counter-ions that a name gives are not always drawn.
outcomeMeasure: B-scores (MUT)
Enter the number alone.

Request: Hi! What's the reported B-scores (MUT) for CO[C@@H](C(=O)N1Cc2n[nH]c(NC(=O)c3ccc(N4CCN(C)CC4)cc3)c2C1)c1ccccc1 on MRGPRX2-MUT (MRGPRX2 N62S mutation) (Homo sapiens, UniProt Q96LB1, N62S)?
Response: 0.61

Request: Lookup Cc1ccc(NC(=O)c2ccc(CN3CCN(C)CC3)cc2)cc1Nc1nc(-c2cccnc2)cs1
Response: 3.82

Request: Lookup CN(C)CCOC(c1ccc(Cl)cc1)c1ccccn1 (stereo not shown) [Carbinoxamine Maleate]
Response: 1.49

Request: Lookup Br.COc1ccc2c(c1)[C@]13CCCC[C@@H]1[C@H](C2)N(C)CC3.O
Response: 54.88

---

- testSystem: MRGPRX2-WT (wild-type MRGPRX2 receptor) (Homo sapiens, UniProt Q96LB1)
- Construct: expressed in transfected cells
- Sequence (Q96LB1 whole entry): as the sequence (Q96LB1 whole entry N62S) above, with S62N counted along it
- experiment: Primary HTS, Ca2+ mobilization (fluorescence ratio, B-score) in HEK293-Gα15 cells stably expressing wild-type MRGPRX2
- Type: cell-based
- runConditions: 10 μM compound, Supplementary Table 1
Where a name gives a salt, the structure may show the parent alone.
I'd be grateful if you could share measured B-scores (WT) for these entries.
Enter the number alone.

Request: Look at this compound and give its reported B-scores (WT). Cl.NC1CCN(c2c(F)cc3c(=O)c(C(=O)O)cn(C4CC4)c3c2Cl)C1 (stereo not shown) [Clinafoxacin Hydrochloride]
Response: 26.08

Request: Lookup CN(C)CCCN1c2ccccc2Sc2ccccc21 [Promazine Hydrochloride]
Response: 23.47

Request: Lookup COc1cc(C(=O)NCc2ccc(OCCN(C)C)cc2)cc(OC)c1OC [Trimethobenzamide Hydrochloride]
Response: 18.56

Request: Lookup CC(=O)O.CC(=O)O.CC[C@H](C)C[C@H](C)CCCCCCCCC(=O)N[C@H]1C[C@@H](O)[C@@H](NCCN)NC(=O)[C@@H]2[C@@H](O)CCN2C(=O)[C@H]([C@H](O)CCN)NC(=O)[C@H]([C@H](O)[C@@H](O)c2ccc(O)cc2)NC(=O)[C@@H]2C[C@@H](O)CN2C(=O)[C@H]([C@@H](C)O)NC1=O [Caspofungin acetate]
Response: 29.98
